Data origin, for the record: PubChem BioAssay AID743417

System: Clone20 osteoblast Shn3 3'UTR firefly luciferase, 24 h
Experiment: Shn3 3'UTR reporter inhibitors, dose response, cell-based, Clone20 osteoblasts, luminescence, dry powder, set 2 (AID 743417)
Records with an inconclusive call do not appear.
MEASURE: AC50

Query block: Write down the reported AC50 of Cc1cc(Cl)c(S(=O)(=O)N2CCSCC2)cc1OCC(=O)NC1CCCCC1 , test system: Clone20 osteoblast Shn3 3'UTR firefly luciferase, 24 h.
Result block: 4.11 µM

Query block: Request: AC50, test system Clone20 osteoblast Shn3 3'UTR firefly luciferase, 24 h, entry CCCCN1CC(COCc2ccccc2)Oc2cccc(Oc3ccc(C)cc3)c2S1(=O)=O (stereo unspecified)
Result block: 10.7 µM

Query block: Give AC50 (Clone20 osteoblast Shn3 3'UTR firefly luciferase, 24 h) of the following molecule: COc1ccc(NC(=O)CSc2ncccc2C(=O)OC(C)C)cc1OC
Result block: 4.1 µM

Query block: Item O=C(Nc1ccc([N+](=O)[O-])cc1)C(=O)Nc1cccc(C(=O)O)c1 with Clone20 osteoblast Shn3 3'UTR firefly luciferase, 24 h - AC50?
Result block: 4.21 µM

Query block: Form field: AC50 recorded for CC(=O)c1cccc(NS(=O)(=O)c2ccc(-c3cnc(C4CC4)o3)cc2)c1 with Clone20 osteoblast Shn3 3'UTR firefly luciferase, 24 h (enter value)
Result block: 5 µM

Query block: Provide value of AC50 for this record tested with Clone20 osteoblast Shn3 3'UTR firefly luciferase, 24 h: c1csc(CNc2ncnc3sccc23)c1
Result block: 1.8 µM

Query block: Which AC50 is reported with Clone20 osteoblast Shn3 3'UTR firefly luciferase, 24 h for this entry: CCCCOC(=O)c1[nH]c2c(c1C)C(=O)CC(c1cc(OC)c(OC)c(OC)c1)C2 (stereo unspecified) ?
Result block: 1.35 µM

Query block: // map Cc1ccc2[nH]c3c(N4CCc5ccccc5C4)ncnc3c2c1 to recorded AC50 (system: Clone20 osteoblast Shn3 3'UTR firefly luciferase, 24 h)
Result block: 1.18 µM

Query block: Recall the recorded AC50 for C=C1C(=O)O[C@@H]2C[C@@H](C)[C@@H]3C=CC(=O)[C@@]3(C)[C@@H](O)[C@H]12 with Clone20 osteoblast Shn3 3'UTR firefly luciferase, 24 h and state it.
Result block: 0.825 µM

Query block: Recall the recorded AC50 for Cc1cc(C)c2sc(NNC(=O)c3ccc(S(=O)(=O)N4CCc5ccccc5C4)cc3)nc2c1 with Clone20 osteoblast Shn3 3'UTR firefly luciferase, 24 h and state it.
Result block: 1.8 µM

Query block: Request body: readout AC50, system Clone20 osteoblast Shn3 3'UTR firefly luciferase, 24 h, query C=C1CC2(CC(c3ccccc3)OC(c3ccccc3)C2)OC1=O (stereo unspecified) . Return the value.
Result block: 2.49 µM

Query block: Recall the recorded AC50 for COc1ccccc1CNc1nc(Nc2cccc(-c3cnco3)c2)c2sccc2n1 with Clone20 osteoblast Shn3 3'UTR firefly luciferase, 24 h and state it.
Result block: 5.61 µM

Query block: Recall the recorded AC50 for N#CC(c1ccc(Cl)cc1)c1ccc2c(C(F)(F)F)cc(C(F)(F)F)nc2n1 (stereo unspecified) with Clone20 osteoblast Shn3 3'UTR firefly luciferase, 24 h and state it.
Result block: 0.487 µM

Query block: Test system Clone20 osteoblast Shn3 3'UTR firefly luciferase, 24 h; read-out AC50; what value for CC(=O)N1CCc2c(sc(NC(=O)c3ccc([N+](=O)[O-])o3)c2C(N)=O)C1 ?
Result block: 1.85 µM

Query block: State its AC50 on Clone20 osteoblast Shn3 3'UTR firefly luciferase, 24 h: Cc1nnc(NC(=O)c2nc(S(=O)(=O)Cc3ccccc3)ncc2Cl)s1
Result block: 1.34 µM

Query block: # value lookup — system Clone20 osteoblast Shn3 3'UTR firefly luciferase, 24 h, readout AC50, item O=C(Sc1cccc2cccnc12)c1ccccc1Br
Result block: 0.383 µM

Query block: Find the measured AC50: item CCOC(=O)C1CCN(c2cc3c(cc2NC(=O)c2ccccc2Br)n(C)c(=O)n3C)CC1 , target or system Clone20 osteoblast Shn3 3'UTR firefly luciferase, 24 h.
Result block: 21.3 µM

Query block: Please state recorded AC50 (tested on Clone20 osteoblast Shn3 3'UTR firefly luciferase, 24 h) of O=C(OCC12CC3CC(CC(C3)C1)C2)c1ccc(NCc2cc(O)ccc2O)cc1
Result block: 3.25 µM

Query block: Enter reported AC50 observed with Clone20 osteoblast Shn3 3'UTR firefly luciferase, 24 h for CC(C)C[C@H]1CNC(=S)N1CC1CCN(CC2CCC(C(C)(C)C)CC2)CC1 (stereo partly specified)
Result block: 4.05 µM

Query block: GET /values?readout=AC50&system=Clone20 osteoblast Shn3 3'UTR firefly luciferase, 24 h&item= Cc1ccnc2c1ccc1c(C)ccnc12
Result block: 0.857 µM

Query block: Give recorded AC50 with Clone20 osteoblast Shn3 3'UTR firefly luciferase, 24 h for the following molecule: CC(=O)NC(c1ccc2ccccc2c1)c1ccc2cccnc2c1O (stereo unspecified)
Result block: 0.422 µM
